Assay: qHTS for Inhibitors of binding or entry into cells for Lassa Virus; also: nearly all actives have a fitted effect of over 50% in size; also: potency is read from the fitted curve at half-maximal effect
Conditions: Lassa virus pseudotype entry inhibition, cell reporter; series mostly up to 37.9 µM
Among all 300,000 compounds or so, about 3,700 (1.2%) were called active. Roughly 20% stayed inconclusive and do not appear here. The full list was thinned out, with actives kept by preference.
Readout Label: Potency

{"Compound": "O=C(CSc1cccc2cccnc12)N/N=C/c1cccnc1", "Result": "inactive"}
{"Compound": "Cc1cccc(NC(=S)N2CCC(C(=O)c3ccc(F)cc3)CC2)c1", "Result": "inactive"}
{"Compound": "Cc1ccc2nc(NC(=O)C3CSC4(C)CCC(=O)N34)sc2c1 (stereo not given)", "Result": "inactive"}
{"Compound": "COc1cc(NC(=O)c2ccccc2NS(=O)(=O)c2ccc(Cl)s2)cc(OC)c1", "Result": "11.2 µM (active)"}
{"Compound": "CC(=O)c1ccc(OC(NC(=O)Cc2ccccc2)C(Cl)(Cl)Cl)cc1 (stereo not given)", "Result": "inactive"}
{"Compound": "O=C1C2C3C=CC(C3)C2C(=O)N1c1ncc([N+](=O)[O-])s1 (stereo not given)", "Result": "inactive"}
{"Compound": "O=C(Nc1cccc(S(=O)(=O)N2CCOCC2)c1)C12CC3CC(CC(C3)C1)C2", "Result": "inactive"}
{"Compound": "COc1ccc(CS(=O)/C(Cl)=C(/Cl)C(=O)Nc2ccc(OC)nc2)cc1 (stereo not given)", "Result": "3.98 µM (active)"}
{"Compound": "CC(=O)OCC(=O)C1(O)CCC2C3CC(C)C4=CC(=O)CCC4(C)C3C(O)CC21C (stereo not given)", "Result": "inactive"}
{"Compound": "CCOc1ccc(S(=O)(=O)Nc2ccc(OC)nc2)cc1", "Result": "inactive"}

* * *

Assay: qHTS for Inhibitors of binding or entry into cells for Lassa Virus; also: nearly all actives have a fitted effect of over 50% in size
Conditions: Lassa virus pseudotype entry inhibition, cell reporter; series mostly up to 37.9 µM
The campaign covered roughly 300,000 compounds. About 3,700 (1.2%) were called active. Another 20% or so got no clear call; they are omitted. Calls come from the whole dose curve; tested in HEK293 cells. The sample as a whole holds a higher share of actives than the screen did.
Outcomes: true (1) (active), false (0) (inactive)

{"Molecule": "Cc1cc(F)ccc1NC(=S)NCCc1ccccc1", "Class Assignment": "false (0)"}
{"Molecule": "CC(C)CC(=O)c1c[nH]c(C(=O)NCc2ccccc2)c1", "Class Assignment": "true (1)"}
{"Molecule": "Cc1cccc(Cn2c(SCCO)nc3c2c(=O)n(C)c(=O)n3C)c1", "Class Assignment": "false (0)"}
{"Molecule": "O=C(N/C(=C/c1ccc(Cl)cc1)C(=O)N1CCCCC1)c1ccco1", "Class Assignment": "false (0)"}
{"Molecule": "Cc1cc(C)c(C)c(S(=O)(=O)Nc2cccnc2)c1C", "Class Assignment": "false (0)"}
{"Molecule": "COc1cccc(NC(=O)C/C(C)=N/NC(=O)C2CCCCC2)c1", "Class Assignment": "false (0)"}
{"Molecule": "CC(C)CC(=O)NC(=S)NCc1ccccc1", "Class Assignment": "false (0)"}
{"Molecule": "N#C/C(=C/c1ccc(N2CCCCC2)o1)C(=O)NCCc1c[nH]c2ccccc12", "Class Assignment": "true (1)"}
{"Molecule": "O=C(c1ccc(F)cc1)c1c[nH]c(C(=O)NCc2cccnc2)c1", "Class Assignment": "false (0)"}
{"Molecule": "CC(=O)Nc1ccc(NC(=O)CS(=O)(=O)c2cn(CC(=O)N3CCCCC3)c3ccccc23)cc1", "Class Assignment": "false (0)"}
{"Molecule": "Cc1cccc(N2CCN(C(=O)CCSCc3ccccc3F)CC2)c1C", "Class Assignment": "false (0)"}
{"Molecule": "O=C(Nc1ccc2nccnc2c1)c1ccco1", "Class Assignment": "false (0)"}
{"Molecule": "O=C(Nc1c[nH]c(=O)[nH]c1=O)OCc1ccccc1", "Class Assignment": "false (0)"}
{"Molecule": "S=C(NN=C1CCN(Cc2ccccc2)CC1)NC1CCCCC1", "Class Assignment": "false (0)"}
{"Molecule": "COc1ccc(C(=O)NCC(c2ccco2)N2CCc3ccccc32)cc1OC (centres undefined)", "Class Assignment": "false (0)"}
{"Molecule": "COc1cccc(C(=O)Nc2ccc(NC(=O)c3ccco3)cn2)c1", "Class Assignment": "false (0)"}
{"Molecule": "O=C(NNc1nc(N2CCCC2)nc(N2CCCC2)n1)c1ccccc1", "Class Assignment": "false (0)"}
{"Molecule": "NC(=S)NN=C1CCCC(C(F)(F)F)C1 (centres undefined)", "Class Assignment": "false (0)"}
{"Molecule": "CC(=O)OC1C2(CC3N4C(=O)C5(CO)SSC4(CC31O)C(=O)N5C)OC(C)C(C)(C)C2=O (centres undefined)", "Class Assignment": "true (1)"}
{"Molecule": "CCOC(=O)C1CCN(C(=O)CN2C(=O)NC(C)(c3ccc4cc(OC)ccc4c3)C2=O)CC1 (centres undefined)", "Class Assignment": "false (0)"}
{"Molecule": "O=C(CSc1nnc(-c2ccncc2)o1)Nc1cccc(Cl)c1", "Class Assignment": "false (0)"}
{"Molecule": "CCOc1ccc(C(=O)CCC(=O)NC2=NCCS2)cc1", "Class Assignment": "false (0)"}
{"Molecule": "COc1ccc(COC(=O)N/N=C(\\C)CC(=O)Nc2ccc(Cl)cc2)cc1", "Class Assignment": "true (1)"}
{"Molecule": "C/C(CC(=O)Nc1ccc(Cl)cc1)=N\\NC(=O)C(=O)NCCO", "Class Assignment": "false (0)"}
{"Molecule": "Cc1cc(Br)ccc1NC(=O)c1cnc(N2CCN(c3ccccn3)CC2)c2ccccc12", "Class Assignment": "true (1)"}
{"Molecule": "Cc1cccnc1CCNC(=O)C1CCC(=O)N(Cc2cccc(F)c2)C1 (centres undefined)", "Class Assignment": "false (0)"}
{"Molecule": "COc1cc2c(cc1OC)C(Cc1cc(OC)c(OC)cc1[N+](=O)[O-])=NCC2", "Class Assignment": "false (0)"}
{"Molecule": "Cn1c2ccccc2c2c(C(=O)N3CCN(c4ccc(F)cc4)CC3)cn(C3CCCC3)c(=O)c21", "Class Assignment": "true (1)"}
{"Molecule": "O=C(c1ccccc1Oc1ccccc1)N1CCN(c2ccc(F)cc2)CC1", "Class Assignment": "false (0)"}
{"Molecule": "COC(=O)Nc1nc2ccc(Sc3ccccc3)cc2[nH]1", "Class Assignment": "false (0)"}
{"Molecule": "CC(=O)N/C(=C/c1ccc(Cl)cc1)C(=O)NCCc1c[nH]c2ccccc12", "Class Assignment": "false (0)"}
{"Molecule": "CC1CN(C(=S)SCC(=O)c2ccccc2)CC(C)O1 (centres undefined)", "Class Assignment": "false (0)"}
{"Molecule": "COc1ccc2c(CNCCc3ccccc3C)c(C(=O)O)n(Cc3ccccc3C)c2c1", "Class Assignment": "false (0)"}
{"Molecule": "CCC(=O)Nc1ccc2nc(SCC(=O)N3CCc4ccccc43)sc2c1", "Class Assignment": "false (0)"}
{"Molecule": "CC(=O)Nc1ccn(Cc2c(F)cccc2Cl)n1", "Class Assignment": "false (0)"}
{"Molecule": "COc1ccc(CCNCc2c(-c3ccccc3)n(C)c3ccccc23)cc1", "Class Assignment": "true (1)"}
{"Molecule": "Cc1cccc(Cn2c(N3CCN(c4ccccc4)CC3)nc3c2c(=O)n(C)c(=O)n3C)c1", "Class Assignment": "true (1)"}
{"Molecule": "Cc1ccc(C)c(NC(=O)CN(C)C(=O)COc2ccc3ccccc3c2)c1", "Class Assignment": "false (0)"}
{"Molecule": "Cn1cc(S(=O)(=O)N2CCCCCC2)cc1C(=O)N1CCN(c2ccc(F)cc2)CC1", "Class Assignment": "false (0)"}
{"Molecule": "CCOC(=O)N1CCC(NC(=O)c2cnn(-c3cccc(C)c3)c2C2CCN(C(=O)OC(C)(C)C)CC2)CC1", "Class Assignment": "false (0)"}
{"Molecule": "O=C(CSC(=S)N1CCOCC1)c1ccccc1", "Class Assignment": "true (1)"}
{"Molecule": "CCS(=O)(=O)Nc1ccc(C2=NN(S(=O)(=O)c3ccc(F)cc3)C(c3ccco3)C2)cc1 (centres undefined)", "Class Assignment": "true (1)"}
{"Molecule": "COC(=O)C(C)Sc1nc2c(c(=O)n(C)c(=O)n2C)n1Cc1cccc(C)c1 (centres undefined)", "Class Assignment": "false (0)"}
{"Molecule": "CCNC(=S)N1CCN(S(=O)(=O)c2ccc(Cl)s2)CC1", "Class Assignment": "false (0)"}

These measurements were taken from PubChem BioAssay AID540256.
